Cited source for all entries: patent US20250145711A1

System Tested: T1, TRCW5 antigen (CD3δε-Fc-Avi) (biotinylated (site not stated))
T1 construct: also called recombinant CD3
T1 sequence (chain, as listed by the source mutant limits assumed): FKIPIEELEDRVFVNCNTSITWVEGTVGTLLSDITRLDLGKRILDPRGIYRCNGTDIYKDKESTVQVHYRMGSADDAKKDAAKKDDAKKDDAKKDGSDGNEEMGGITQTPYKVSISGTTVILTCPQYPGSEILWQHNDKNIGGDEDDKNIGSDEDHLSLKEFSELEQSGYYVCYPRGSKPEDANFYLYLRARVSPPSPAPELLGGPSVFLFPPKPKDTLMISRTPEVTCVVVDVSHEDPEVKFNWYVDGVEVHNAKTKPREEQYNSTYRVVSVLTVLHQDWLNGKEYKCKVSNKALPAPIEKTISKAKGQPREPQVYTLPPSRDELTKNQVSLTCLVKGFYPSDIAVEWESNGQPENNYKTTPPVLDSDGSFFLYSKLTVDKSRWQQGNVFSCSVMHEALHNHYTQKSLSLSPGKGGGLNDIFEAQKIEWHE
Protocol: binding after heat
Assay Metric: % Retained 60° C. (%)
Answers are plain numbers, in %.

Binder: CD3B2089 (scFv) scFv: QVQLVQSGAEVKKPGSSVKVSCKASGYTFTRSTMHWVRQAPGQGLEWMGYINPSSAYTNYAQKFQGRVTLTADKSTSTAYMELSSLRSEDTAVYYCASPQVHYDYNGFPYWGQGTLVTVSSGGSEGKSSGSGSESKSTGGSEIVLTQSPATLSASPGERVTLSCSASSSVSYMNWYQQKPGQAPRRWIYDSSKLASGVPARFSGSGSGRDYTLTISSLEPEDFAVYYCQQWSRNPPTFGGGTKVEIK
Unit Spec: %
Reported Result: 109
--
Binder: CD3B2089 N106I (scFv) scFv: QVQLVQSGAEVKKPGSSVKVSCKASGYTFTRSTMHWVRQAPGQGLEWMGYINPSSAYTNYAQKFQGRVTLTADKSTSTAYMELSSLRSEDTAVYYCASPQVHYDYIGFPYWGQGTLVTVSSGGSEGKSSGSGSESKSTGGSEIVLTQSPATLSASPGERVTLSCSASSSVSYMNWYQQKPGQAPRRWIYDSSKLASGVPARFSGSGSGRDYTLTISSLEPEDFAVYYCQQWSRNPPTFGGGTKVEIK
Unit Spec: %
Reported Result: 2.5
--
Binder: CD3B2030 N106A (scFv) scFv: QVQLVQSGAEVKKPGSSVKVSCKASGYTFTRSTMHWVKQAPGQGLEWIGYINPSSAYTNYNQKFQGRVTLTADKSTSTAYMELSSLRSEDTAVYYCASPQVHYDYAGFPYWGQGTLVTVSSGGSEGKSSGSGSESKSTGGSEIVLTQSPATLSASPGERVTLSCSASSSVSYMNWYQQKPGQAPRRWIYDSSKLASGVPARFSGSGSGRDYTLTISSLEPEDFAVYYCQQWSRNPPTFGGGTKVEIK
Unit Spec: %
Reported Result: 103

Hey, quick one: what's % Retained 60° C. for each of these?
1. CD3B2089 N106F (scFv) scFv: QVQLVQSGAEVKKPGSSVKVSCKASGYTFTRSTMHWVRQAPGQGLEWMGYINPSSAYTNYAQKFQGRVTLTADKSTSTAYMELSSLRSEDTAVYYCASPQVHYDYFGFPYWGQGTLVTVSSGGSEGKSSGSGSESKSTGGSEIVLTQSPATLSASPGERVTLSCSASSSVSYMNWYQQKPGQAPRRWIYDSSKLASGVPARFSGSGSGRDYTLTISSLEPEDFAVYYCQQWSRNPPTFGGGTKVEIK
2. CD3B2030 (scFv) scFv: QVQLVQSGAEVKKPGSSVKVSCKASGYTFTRSTMHWVKQAPGQGLEWIGYINPSSAYTNYNQKFQGRVTLTADKSTSTAYMELSSLRSEDTAVYYCASPQVHYDYNGFPYWGQGTLVTVSSGGSEGKSSGSGSESKSTGGSEIVLTQSPATLSASPGERVTLSCSASSSVSYMNWYQQKPGQAPRRWIYDSSKLASGVPARFSGSGSGRDYTLTISSLEPEDFAVYYCQQWSRNPPTFGGGTKVEIK
3. CD3B2051 N106R (scFv) scFv: QVQLVQSGAEVKKPGSSVKVSCKASGYTFTRSTMHWVKQAPGQGLEWMGYINPSSAYTNYNQKFQGRVTLTADKSTSTAYMELSSLRSEDTAVYYCASPQVHYDYRGFPYWGQGTLVTVSSGGSEGKSSGSGSESKSTGGSEIVLTQSPATLSASPGERVTLSCSASSSVSYMNWYQQKPGQAPRRLIYDSSKLASGVPARFSGSGSGRDYTLTISSLEPEDFAVYYCQQWSRNPPTFGGGTKVEIK
4. CD3B2051 (scFv) scFv: QVQLVQSGAEVKKPGSSVKVSCKASGYTFTRSTMHWVKQAPGQGLEWMGYINPSSAYTNYNQKFQGRVTLTADKSTSTAYMELSSLRSEDTAVYYCASPQVHYDYNGFPYWGQGTLVTVSSGGSEGKSSGSGSESKSTGGSEIVLTQSPATLSASPGERVTLSCSASSSVSYMNWYQQKPGQAPRRLIYDSSKLASGVPARFSGSGSGRDYTLTISSLEPEDFAVYYCQQWSRNPPTFGGGTKVEIK
5. CD3B2089 N106E (scFv) scFv: QVQLVQSGAEVKKPGSSVKVSCKASGYTFTRSTMHWVRQAPGQGLEWMGYINPSSAYTNYAQKFQGRVTLTADKSTSTAYMELSSLRSEDTAVYYCASPQVHYDYEGFPYWGQGTLVTVSSGGSEGKSSGSGSESKSTGGSEIVLTQSPATLSASPGERVTLSCSASSSVSYMNWYQQKPGQAPRRWIYDSSKLASGVPARFSGSGSGRDYTLTISSLEPEDFAVYYCQQWSRNPPTFGGGTKVEIK

1: 101; 2: 102; 3: 74.5; 4: 95; 5: 108

Reported % Retained 60° C., binder CD3B2089 N106T (scFv) scFv: QVQLVQSGAEVKKPGSSVKVSCKASGYTFTRSTMHWVRQAPGQGLEWMGYINPSSAYTNYAQKFQGRVTLTADKSTSTAYMELSSLRSEDTAVYYCASPQVHYDYTGFPYWGQGTLVTVSSGGSEGKSSGSGSESKSTGGSEIVLTQSPATLSASPGERVTLSCSASSSVSYMNWYQQKPGQAPRRWIYDSSKLASGVPARFSGSGSGRDYTLTISSLEPEDFAVYYCQQWSRNPPTFGGGTKVEIK : ____ 76.7
